Reference source for all entries: ChEMBL document CHEMBL1150012

molecular target: Glutamate receptor 1 (Rattus norvegicus) (UniProt P19490); assay: Compound was evaluated to potentiate response of AMPA-activated current in Xenopus oocytes expressing Ionotropic glutamate receptor AMPA; assay type: functional, cell-based; details: Oocyte
Sequence (P19490 whole entry): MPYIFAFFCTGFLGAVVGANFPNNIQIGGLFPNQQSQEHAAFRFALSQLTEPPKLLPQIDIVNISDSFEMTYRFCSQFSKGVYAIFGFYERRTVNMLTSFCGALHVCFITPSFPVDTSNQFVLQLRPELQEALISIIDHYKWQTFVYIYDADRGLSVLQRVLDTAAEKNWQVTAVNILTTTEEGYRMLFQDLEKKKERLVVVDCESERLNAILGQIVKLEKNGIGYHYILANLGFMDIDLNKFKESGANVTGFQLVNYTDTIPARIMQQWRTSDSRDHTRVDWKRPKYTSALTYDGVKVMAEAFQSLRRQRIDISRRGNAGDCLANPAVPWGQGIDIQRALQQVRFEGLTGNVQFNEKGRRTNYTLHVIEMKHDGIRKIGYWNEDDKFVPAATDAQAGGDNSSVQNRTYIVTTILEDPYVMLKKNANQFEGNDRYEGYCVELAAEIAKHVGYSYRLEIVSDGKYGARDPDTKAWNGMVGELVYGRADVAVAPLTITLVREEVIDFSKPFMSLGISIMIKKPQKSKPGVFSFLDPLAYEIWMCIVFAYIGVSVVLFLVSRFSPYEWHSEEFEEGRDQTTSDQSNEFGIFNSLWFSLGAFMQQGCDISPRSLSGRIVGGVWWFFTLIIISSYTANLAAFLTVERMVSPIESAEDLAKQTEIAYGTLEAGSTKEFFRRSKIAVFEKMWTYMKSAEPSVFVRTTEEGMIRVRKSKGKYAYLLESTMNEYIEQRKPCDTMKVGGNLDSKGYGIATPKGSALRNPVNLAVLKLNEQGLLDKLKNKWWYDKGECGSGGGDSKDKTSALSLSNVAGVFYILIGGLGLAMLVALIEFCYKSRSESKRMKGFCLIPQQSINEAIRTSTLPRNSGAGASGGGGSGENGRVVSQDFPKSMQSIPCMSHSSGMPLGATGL
readout.label: EC2x (µM)
The response must be a number in µM with no trailing unit.

[Q] Please indicate EC2x recorded for O=S1(=O)NC2CCCN2c2ccccc21 (racemic)
[A] 60

[Q] Return reported EC2x. Input compound: NS(=O)(=O)c1cc2c(cc1Cl)NC(C1CC3C=CC1C3)NS2(=O)=O (stereo not given)
[A] 2

[Q] Read off the recorded EC2x for "O=C(c1ccc2c(c1)OCCO2)N1CC=CCC1"
[A] 45

[Q] Provide one value: measured EC2x of "O=C(c1ccc2c(c1)OCO2)N1CCCCC1"
[A] 300

[Q] Given the compound "O=S1(=O)N[C@@H]2CCCN2c2ccccc21" , write its reported EC2x.
[A] 300
